- tested_target: Avi-KRAS G12C (2-169) GTP/RAF1 RBD-3xFLAG (51-131) (Homo sapiens, UniProt P01116, G12C)
- Construct: Avi-KRAS G12C (2-169)
- Sequence (P01116 2-169 isoform P01116-2 G12C): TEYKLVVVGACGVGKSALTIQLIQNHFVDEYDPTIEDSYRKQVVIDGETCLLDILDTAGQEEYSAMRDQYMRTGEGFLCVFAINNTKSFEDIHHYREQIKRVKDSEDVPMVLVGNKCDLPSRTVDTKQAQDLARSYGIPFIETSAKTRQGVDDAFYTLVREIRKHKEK
- assay_details: Raf1-KRAS G12C-GTP disruption HTRF assay (Biological Example 3)
- Assay type: binding
- condition_description: KRAS G12C, GTP-loaded
Collected IC50 values appear next to each entry.

Examples with their reported IC50 follow.
{"molecule": "CCN(c1nc(OC[C@@]23CCCN2C[C@H](F)C3)nc2c(F)c(-c3ccc(F)c4sc(N)c(C#N)c34)c(C(F)(F)F)cc12)[C@H]1CCN(C(=O)N2CC(OC)C2)C1 (atropisomer, axis not shown) [Compound 607]", "IC50": "≤ 100 nM"}
{"molecule": "CCN(c1nc(OC[C@@]23CCCN2C[C@H](F)C3)nc2c(F)c(-c3ccc(F)c4sc(N)c(C#N)c34)c(C(F)(F)F)cc12)[C@H]1C[C@H]2[C@H](C)OC(=O)N2C1 (atropisomer, axis not shown) [Compound 836]", "IC50": "100 to 1000 nM"}
{"molecule": "CO[C@H](C)C(=O)N1CC[C@H](N(c2nc(OC[C@@]34CCCN3C[C@H](F)C4)nc3c(F)c(-c4ccc(F)c5sc(N)c(C#N)c45)c(C(F)(F)F)cc23)C2CC2)C1 (atropisomer, axis not shown) [Compound 826]", "IC50": "1000 to 10000 nM"}

In: What value of IC50 on Avi-KRAS G12C (2-169) GTP/RAF1 RBD-3xFLAG (51-131) (Homo sapiens, UniProt P01116, G12C) does CCN(c1nc(OC[C@@]23CCCN2C[C@H](F)C3)nc2c(F)c(-c3ccc(F)c4sc(N)c(C#N)c34)c(C(F)(F)F)cc12)[C@H]1CCN(C(=O)C2CC2)[C@@H]1COC (atropisomer, axis not shown) [Compound 925] have?
Out: 100 to 1000 nM

----------
Collected IC50 values appear next to each entry.
- tested_target: Avi-KRAS G12D (1-169) GppNHp/RAF1 RBD-3xFLAG (52-151) (Homo sapiens, UniProt P01116, G12D)
- Construct: Avi-KRAS G12D (1-169)
- Sequence (P01116 1-169 isoform P01116-2 G12D): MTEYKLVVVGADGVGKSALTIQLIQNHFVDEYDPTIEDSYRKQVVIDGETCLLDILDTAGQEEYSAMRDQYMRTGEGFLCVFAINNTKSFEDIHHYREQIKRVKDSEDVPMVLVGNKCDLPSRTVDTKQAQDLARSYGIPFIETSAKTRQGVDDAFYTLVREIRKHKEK
- assay_details: Raf1-KRAS G12D-GppNHP disruption HTRF assay (Biological Example 1)
- Format: binding
- condition_description: KRAS G12D, GppNHp-loaded; class symbols

Examples with their reported IC50 follow.
{"molecule": "CC#CC(=O)N1CC[C@@H](N(C)c2nc(OC[C@@]34CCCN3C[C@H](F)C4)nc3c(F)c(-c4ccc(F)c5sc(N)c(C#N)c45)c(C(F)(F)F)cc23)[C@H]1C", "IC50": "100 to 1000 nM"}
{"molecule": "N#Cc1c(N)sc2c(F)ccc(-c3c(C(F)(F)F)cc4c(N5CCn6nc(C(=O)N7CCC7)cc6C5)nc(OCC56CCCN5CC(F)C6)nc4c3F)c12 (stereo not drawn)", "IC50": "100 to 1000 nM"}
{"molecule": "CCN(c1nc(OC[C@@]23CCCN2C[C@H](F)C3)nc2c(F)c(-c3ccc(F)c4sc(N)c(C#N)c34)c(C(F)(F)F)cc12)[C@H]1CCN(C(=O)N2CCN(C(C)=O)CC2)C1 (atropisomer, axis not shown)", "IC50": "< 100 nM"}
{"molecule": "CCN(c1nc(OC[C@@]23CCCN2C[C@H](F)C3)nc2c(F)c(-c3ccc(F)c4sc(N)c(C#N)c34)c(C(F)(F)F)cc12)[C@H]1CCN(C(=O)[C@H](C)OC)C1 (atropisomer, axis not shown)", "IC50": "< 100 nM"}
{"molecule": "CCN(c1nc(OCC23CCCN2CC(F)C3)nc2c(F)c(-c3ccc(F)c4sc(N)c(C#N)c34)c(C(F)(F)F)cc12)C1CCN(C(=O)c2oncc2C)C1 (stereo not drawn)", "IC50": "< 100 nM"}

In: What value of IC50 on Avi-KRAS G12D (1-169) GppNHp/RAF1 RBD-3xFLAG (52-151) (Homo sapiens, UniProt P01116, G12D) does CCN(c1nc(OC[C@@]23CCCN2C[C@H](F)C3)nc2c(F)c(-c3ccc(F)c4sc(N)c(C#N)c34)c(C(F)(F)F)cc12)[C@H]1CCN(C(=O)C2COC2)C1 (atropisomer, axis not shown) have?
Out: < 100 nM

In: Same question, C[C@@H](c1cccnc1N)N(C)c1nc(OC[C@@]23CCCN2C[C@H](F)C3)nc2c(F)c(-c3ccc(F)c4sc(N)c(C#N)c34)c(C(F)(F)F)cc12 (atropisomer, axis not shown) this time
Out: 100 to 1000 nM

In: Same question, CCN(c1nc(OC[C@@]23CCCN2C[C@H](F)C3)nc2c(F)c(-c3ccc(F)c4sc(N)c(C#N)c34)c(C(F)(F)F)cc12)[C@H]1CCN(C(=O)N(C)C2CC2)C1 (atropisomer, axis not shown) this time
Out: < 100 nM

In: Same question, CCN(c1nc(OC[C@@]23CCCN2C[C@H](F)C3)nc2c(F)c(-c3ccc(F)c4sc(N)c(C#N)c34)c(C(F)(F)F)cc12)[C@@H]1C[C@H](C)N(C(=O)C2COC2)C1 (atropisomer, axis not shown) this time
Out: 100 to 1000 nM

In: Same question, CCC(=O)N1CC[C@H]2[C@@H]1CN2c1nc(OC[C@@]23CCCN2C[C@H](F)C3)nc2c(F)c(-c3ccc(F)c4sc(N)c(C#N)c34)c(C(F)(F)F)cc12 (atropisomer, axis not shown) this time
Out: 1000 to 10000 nM

In: Same question, C=C(F)C(=O)N1CC[C@H](N(CC)c2nc(OC[C@@]34CCCN3C[C@H](F)C4)nc3c(F)c(-c4ccc(F)c5sc(N)c(C#N)c45)c(C(F)(F)F)cc23)C1 (atropisomer, axis not shown) this time
Out: < 100 nM

In: Same question, CCN(c1nc(OCC23CCCN2CC(F)C3)nc2c(F)c(-c3ccc(F)c4sc(N)c(C#N)c34)c(C(F)(F)F)cc12)C1CCN(C(=O)c2ncon2)C1 (stereo not drawn) this time
Out: < 100 nM
